tested on: Saccharomyces cerevisiae; assay: protein stability index of tFT-peptide fusion (C-terminal peptide) (PSI (0-1 scale)); higher = more stable (slower turnover); conditions: genetic background: wild type; temperature: 30 C
# Lookup of reported protein stability index keyed by entry
observation_type: protein stability index

PLPPPAFPPLDP = 0.671
DDWCLVGGLCDC = 0.684
VGGVGGGRAWWR = 0.685
WGGGVGWSGACL = 0.734
RNRLTTMCRHLE = 0.655
WLLVVCRGLVFR = 0.319
TLNSSPFTTPTI = 0.717
PPPWPLPPGRLP = 0.703
QPRLRPPLPSPP = 0.638
SQFGLGCCQRST = 0.723
RPLVYIKHLALL = 0.44
AFLLAVIRSSCV = 0.55
VLGWCLCGRTCG = 0.658
SPPPNPPRPSSR = 0.768
RPLSPPSAPTSF = 0.679
SSRPLISTLTPY = 0.661
RSSDRGDVRATC = 0.689
GGIRGITSRQPP = 0.576
PPSPPIPPPPAP = 0.732

----------
system: Saccharomyces cerevisiae; assay: protein stability index of tFT-peptide fusion (C-terminal peptide) (PSI (0-1 scale)); higher = more stable (slower turnover); settings: genetic background: wild type; temperature: 30 C
# key: entry, value: protein stability index
observation_type: protein stability index

SLYVRRCKEASK = 0.689
PTPPPPPSPFAL = 0.804
ELRCEMEFWCER = 0.594
AAQHNSLRGGPP = 0.731
RPPPPRPRSLLS = 0.654
YFESKWKYAGVR = 0.699
ISDRKARSDKNK = 0.656
YLPKLSTYRLLR = 0.654
KEHTKKQERTPK = 0.596
SVPPTCLHDAHF = 0.713
FLFLSFLSSSPS = 0.745
SVFGVRARFGSV = 0.756
ESCIKGCSGVVS = 0.651
GFLWLLGGVLGV = 0.658
AYVFLPINKENR = 0.641
RFPSLCVPFLFP = 0.678
HKNPQKEVIAKT = 0.744
GGGRYCADDGGR = 0.763
TPSSLLLISPPS = 0.703

----------
system: Saccharomyces cerevisiae; assay: protein stability index of tFT-peptide fusion (C-terminal peptide) (PSI (0-1 scale)); higher = more stable (slower turnover); conditions: genetic background: wild type; temperature: 30 C
Think of 0.7 as a floor: if protein stability index stands on it or above, it is 1 (yes); beneath it, 0 (no).

RTQGEGQGSMFR [TAF11 C-terminal 12 aa] = 0 (no)
SRFEVACEQKAA [BSC2 C-terminal 12 aa] = 0 (no)
SSSLSPSLSSWP [YJL020W-A C-terminal 12 aa] = 1 (yes)
VSKMDCDPLTVA [NIF3 C-terminal 12 aa] = 0 (no)
DSTMKIWSPGYQ [STE4 C-terminal 12 aa] = 1 (yes)
YCIYQILILVKH [YCL065W C-terminal 12 aa] = 0 (no)
TKVYFLGRDSSV [NDE2 C-terminal 12 aa] = 0 (no)
NAEKAAGQKKED [YLL053C C-terminal 12 aa] = 0 (no)
LFCNYITETVEN [ASH1 C-terminal 12 aa] = 0 (no)
LVFALLTCFEDG [YDR209C C-terminal 12 aa] = 0 (no)
MIDELDYNINFA [UGA3 C-terminal 12 aa] = 1 (yes)
MTKISILKPFLH [CDC6 C-terminal 12 aa] = 0 (no)
RHELQALQAEIN [END3 C-terminal 12 aa] = 0 (no)
ILRILANSNDDN [BXI1 C-terminal 12 aa] = 0 (no)

----------
Entries and their measured protein stability index follow.
system: Saccharomyces cerevisiae; test: protein stability index of tFT-peptide fusion (C-terminal peptide) (PSI (0-1 scale)); higher = more stable (slower turnover); conditions: genetic background: wild type; temperature: 30 C
observation_type: protein stability index

PLLQALLPPAPP = 0.632
ELELDRTEWVTI = 0.799
PWGVGLACLFLL = 0.126
RERRFFPPSGFS = 0.71
RCLSRLSALGTD = 0.624
AAYGCSGGEVGW = 0.68
AYSPLFPPLLSL = 0.649
LCVWRRAIVWVG = 0.137
RCPDSARRWRVP = 0.711
AAVSRPLPLGPP = 0.693
PTPPLLPPAPSP = 0.707
GGGGGGRLEGGA = 0.66
PPPFPLLPRYGF = 0.657
LVGGFLVSGRAR = 0.69
SCLFGIFRWWVG = 0.568
PTNISEKVGAKS = 0.671
KIKNNKNKKKKS = 0.693
RRRLLCVCDLMM = 0.576
LCKGCEGGVMQR = 0.666
RVSPGGLCALSV = 0.701
VAWYALPWCVLI = 0.621
AVLERGLCCGEY = 0.738
ACDGIRRPVRGG = 0.697
AWNRFVNPRVWS = 0.677
VVLFHGLGFCHN = 0.627
RNKRPDQRERKQ = 0.692
FGVRTLTFISRT = 0.637
GGRLLLLVGFRV = 0.583
RPSLEKQETEKT = 0.696
DLLAVPALTLHL = 0.677
VAGGTCGGRACC = 0.694
NLIGVVKSEYHR = 0.574
YMGGGGASGAPA = 0.667
KCSSEPMCKTCR = 0.626
AGGKRGGDGRWQ = 0.668
SFSLAGFVCCVI = 0.6
PIPLPLSPPLPT = 0.73
SFGTLPLNSTAS = 0.644
HLPGFAVVFPFP = 0.717
ILSASARPPRPA = 0.701
SYGPSGEFSFSF = 0.702

----------
system: Saccharomyces cerevisiae; assay: protein stability index of tFT-peptide fusion in wild type (PSI (0-1 scale)); higher = more stable (slower turnover); conditions: genetic background: wild type
Decision: protein stability index compared against 0.5; not below it gives Met, below it gives Not met.

VFGAVGGWRLVG = Not met
PSLHASFWRVVG = Not met
ARWRVGMWRGAS = Not met
LKILRQKMNHQNT = Met
LVVYQSCVACIN = Not met
ARWRVGGWRGAS = Met
KKHKKGQKNKIN = Not met
CGSCGYKFRTNN = Not met

----------
Each record here notes measured protein stability index.
tested on: Saccharomyces cerevisiae; experiment: protein stability index of tFT-peptide fusion in deletion strain of DAS1 (PSI (0-1 scale)); higher = more stable (slower turnover)
observation_type: protein stability index

LKILRQKMNHQND = 0.724
LKILRQVMNHQN = 0.663
LVVYLSCVACINI = 0.0321
PLIQPLPVQFLN = 0.604
PDKRNHLIKLLK = 0.611
TKHKKGQKQKIN = 0.639
LVVYLSCVACID = 0.0175
ARFRVGLWRGAS = 0.668
DTSCGYKFRTNN = 0.68
VRGDVGGWRLVG = 0.679
FSMRWTVRYWVN = 0.454
VFGAVGGWRLVG = 0.698
VRGAVGGWFLVG = 0.673
VRGAAGGWRLVG = 0.689
ARWRVGLWRGCS = 0.683
KKHKKGQKQKEN = 0.82
PSLAAKFWRVVG = 0.681
FSMRWTCRYWVN = 0.515
ARPRVGLWRGAS = 0.681
LVVYLSCVACIV = 0.0299
LKILRQKMNHQNT = 0.692
ITSCGYKFRTNN = 0.674
CTSCGYKFRLNN = 0.701
VMGAVGGWRLVG = 0.681
PSLAASFWDVVG = 0.708
KKHQKGQKQKIN = 0.597
KKHKKGQKQAIN = 0.6
CTSCGYMFRTNN = 0.682
CTSCGYKFRTNNA = 0.697
VRGAVGGWRVVG = 0.654
LVVYTSCVACIN = 0.0606
KKHKYGQKQKIN = 0.613
LVVYLSCEACIN = 0.0235
FSMRWTFRYWVNR = 0.562
LKHLRQKMNHQN = 0.712
KKHKKGQKNKIN = 0.596
ARWRVGGWRGAS = 0.701
FSMRWTPRYWVN = 0.59
LVVYLSCVSCIN = 0.0441
KDHKKGQKQKIN = 0.604
CTSCGYKFRTNNV = 0.69

----------
system: Saccharomyces cerevisiae; assay: protein stability index of tFT-peptide fusion (C-terminal peptide) (PSI (0-1 scale)); higher = more stable (slower turnover); conditions: genetic background: das1 deletion; temperature: 37 C
Please use fulfilled whenever protein stability index is not below 0.5, and not fulfilled whenever it is.

PFFVFSFLFLLH = not fulfilled
LLSGLVFVFVLG = not fulfilled
FFSGSVFMAVSL = not fulfilled
FLVVCGLLSWVW = not fulfilled
LFHFPSWIFCLL = fulfilled
VQTVRLVFQVLA = not fulfilled
VGIVWELGCWMG = fulfilled
SLTNYQRLIHVC = not fulfilled
SLAPPPPLLILR = not fulfilled
VFVFLFVFLFLL = not fulfilled
LSTFFIFLRILR = not fulfilled
GVLTVVLQVGVV = not fulfilled
WLFRCFLFVVGG = not fulfilled
LCFLVLLSLLLL = fulfilled
IFLCRNGAVFIC = fulfilled
VSCFIVSFWVFL = fulfilled
LVGLLASWLRFN = fulfilled
LGCRFCFVGVVG = fulfilled
